MEASURED_TARGET: AChE (Electrophorus electricus, UniProt O42275)
Construct: The enzyme AChE is derived from Electric eel and BChE from equine serum; from tissue
Sequence (O42275 24-633): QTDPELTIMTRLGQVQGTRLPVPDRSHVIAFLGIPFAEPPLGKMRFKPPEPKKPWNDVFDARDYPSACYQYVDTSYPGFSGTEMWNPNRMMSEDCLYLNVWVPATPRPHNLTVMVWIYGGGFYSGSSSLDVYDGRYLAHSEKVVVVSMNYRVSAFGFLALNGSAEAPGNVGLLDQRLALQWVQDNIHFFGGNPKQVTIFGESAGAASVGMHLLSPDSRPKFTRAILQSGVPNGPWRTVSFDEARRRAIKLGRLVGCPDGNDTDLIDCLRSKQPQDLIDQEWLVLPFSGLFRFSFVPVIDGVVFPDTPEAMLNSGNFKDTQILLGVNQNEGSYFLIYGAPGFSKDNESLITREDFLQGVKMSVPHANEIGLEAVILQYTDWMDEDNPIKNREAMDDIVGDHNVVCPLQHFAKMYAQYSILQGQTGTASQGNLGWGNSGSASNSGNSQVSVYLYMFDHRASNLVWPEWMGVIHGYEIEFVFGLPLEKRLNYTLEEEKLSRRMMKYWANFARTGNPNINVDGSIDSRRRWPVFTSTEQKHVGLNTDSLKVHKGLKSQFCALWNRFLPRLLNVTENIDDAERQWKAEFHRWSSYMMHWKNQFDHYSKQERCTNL
ASSAY_SUMMARY: biochemical
CONDITION_PARAMETERS: Conc. 125 µg/mL
Items are presented alongside their recorded inhibition at 125 µg/mL.

>  <SMILES_STRUCTURE>
CC(C)(C)NC(=S)NC1CCCCC1

>  <inhibition at 125 µg/mL>
44.7%

$$$$

Requested read-out: inhibition at 125 µg/mL. Entry: S=C(Nc1ccccc1)Nc1ccccc1Cl
35.5%

Requested read-out: inhibition at 125 µg/mL. Entry: CC(C)CNC(=S)NC1CCCCC1
53.6%

Requested read-out: inhibition at 125 µg/mL. Entry: S=C(Nc1cccc(Cl)c1)NC1CCCCC1
57.3%

Requested read-out: inhibition at 125 µg/mL. Entry: CCCCN(CCCC)C(=S)Nc1ccccc1
71.8%

Requested read-out: inhibition at 125 µg/mL. Entry: S=C(Nc1ccccc1)Nc1ccc(Cl)cc1
39%

This collection of values is drawn from paper PMC8347686.
